- Test system: H. pylori
- PROCEDURE_SUMMARY: Anti H. pylori spectrum (MIC) by agar dilution method
- Assay type: cell-based, Helicobacter pylori
- CONDITION_DESCRIPTION: Helicobacter pylori, clinical strain HP004, read-out: MIC
RECORDED_METRIC: MIC

COMPOUND | RESULT
O=c1cc(-c2ccccc2)oc2cc(OCCCN3CCCCC3)cc(O)c12 | < 12.5 µg/mL
CC1(C)S[C@@H]2[C@H](NC(=O)[C@H](N)c3ccc(O)cc3)C(=O)N2[C@H]1C(=O)O [Amoxicillin, reference compound] | 0.016 µg/mL
O=c1cc(-c2ccccc2)oc2cc(OCCCCCCN3CCOCC3)cc(O)c12 | < 12.5 µg/mL

Item CN1CCN(CCCOc2cc(O)c3c(=O)cc(-c4ccccc4)oc3c2)CC1 has what recorded MIC?
12.5 µg/mL

This collection of values is drawn from patent US9642854B2.
